test system: FaDu; assay: Cytotoxicity against human FADU cells after 96 hrs by SRB assay; type: functional, cell-based
MEASUREMENT_NAME: pIC50
One number for each entry, as −log10 of the molar value.

COMPOUND	TEST_VALUE
C=C(C)[C@@H]1CC[C@]2([C@@H]3O[C@H]3C(=O)N(CC)CC)CC[C@]3(C)[C@H](CC[C@@H]4[C@@]5(C)CC[C@H](OC(C)=O)C(C)(C)[C@@H]5CC[C@]43C)[C@@H]12	5.23
C=C(C)[C@@H]1CC[C@]2(C(=O)CC(=O)OCC)CC[C@]3(C)[C@H](CC[C@@H]4[C@@]5(C)CC[C@H](OC)C(C)(C)[C@@H]5CC[C@]43C)[C@@H]12	5.19
C=C(C)[C@@H]1CC[C@]2(C(=O)[C@H]3CCOC3=O)CC[C@]3(C)[C@H](CC[C@@H]4[C@@]5(C)CC[C@H](OC(C)=O)C(C)(C)[C@@H]5CC[C@]43C)[C@@H]12 (mixture of isomers)	5.24

Please supply pIC50 for each of the following items, keeping them in order.
1. C=C(C)[C@@H]1CC[C@]2([C@H](O)CC(=O)CC(=O)OCC)CC[C@]3(C)[C@H](CC[C@@H]4[C@@]5(C)CC[C@H](OC)C(C)(C)[C@@H]5CC[C@]43C)[C@@H]12
2. CCOC(=O)C[C@H]1O[C@@H]2[C@@H]3[C@H]4CC[C@@H]5[C@@]6(C)CC[C@H](OC(C)=O)C(C)(C)[C@@H]6CC[C@@]5(C)[C@]4(C)CC[C@@]31CCC2(C)C

Result ::
4.79
4.61

Please supply pIC50 for each of the following items, keeping them in order.
1. C=C(C)[C@@H]1CC[C@]2([C@H](O)[C@H]3C=CC(=O)O3)CC[C@]3(C)[C@H](CC[C@@H]4[C@@]5(C)CC[C@H](OC(C)=O)C(C)(C)[C@@H]5CC[C@]43C)[C@@H]12
2. C=C(C)[C@@H]1CC[C@]2(C(=O)CC(=O)OCC)CC[C@]3(C)[C@H](CC[C@@H]4[C@@]5(C)CC[C@H](OC(C)=O)C(C)(C)[C@@H]5CC[C@]43C)[C@@H]12
3. C=C(C)[C@@H]1CC[C@]2([C@H](O)[C@H]3CCOC3=O)CC[C@]3(C)[C@H](CC[C@@H]4[C@@]5(C)CC[C@H](OC(C)=O)C(C)(C)[C@@H]5CC[C@]43C)[C@@H]12
4. CCOC(=O)CC(=O)C[C@H]1O[C@@H]2[C@@H]3[C@H]4CC[C@@H]5[C@@]6(C)CC[C@H](OC(C)=O)C(C)(C)[C@@H]6CC[C@@]5(C)[C@]4(C)CC[C@@]31CCC2(C)C
5. C=C(C)[C@@H]1CC[C@]2([C@H](O)CC(=O)CC(=O)OCC)CC[C@]3(C)[C@H](CC[C@@H]4[C@@]5(C)CC[C@H](OC(C)=O)C(C)(C)[C@@H]5CC[C@]43C)[C@@H]12

Result ::
[4.91, 5.52, 4.76, 5.15, 4.98]

###

Kindly state IC50 for each of the entries shown.
tested on: SW-1736; test: Cytotoxicity against human SW1736 cells after 96 hrs by SRB assay; format: functional, cell-based; settings: SW-1736, 96 h
One number for each entry, in µM.

Solved cases below.
COMPOUND_STRING	MEASUREMENT_UNITS	IC50
C=C(C)[C@@H]1CC[C@]2([C@@H]3O[C@H]3C(=O)N(CC)CC)CC[C@]3(C)[C@H](CC[C@@H]4[C@@]5(C)CC[C@H](OC(C)=O)C(C)(C)[C@@H]5CC[C@]43C)[C@@H]12	µM	2.7
C=C(C)[C@@H]1CC[C@]2([C@H](O)CC(=O)CC(=O)OCC)CC[C@]3(C)[C@H](CC[C@@H]4[C@@]5(C)CC[C@H](OC)C(C)(C)[C@@H]5CC[C@]43C)[C@@H]12	µM	13.8
C=C(C)[C@@H]1CC[C@]2(C(=O)CC(=O)OCC)CC[C@]3(C)[C@H](CC[C@@H]4[C@@]5(C)CC[C@H](OC)C(C)(C)[C@@H]5CC[C@]43C)[C@@H]12	µM	7.2

Proceed to the following item.
Query :: Quick one: IC50 of C=C(C)[C@@H]1CC[C@]2(C(=O)CC(=O)OCC)CC[C@]3(C)[C@H](CC[C@@H]4[C@@]5(C)CC[C@H](OC(C)=O)C(C)(C)[C@@H]5CC[C@]43C)[C@@H]12 ?
Result :: 2.3

###

system: SW480; assay: Cytotoxicity against human SW480 cells after 96 hrs by SRB assay; assay type: functional, cell-based; settings: SW480, 96 h
Kindly state pIC50 for each of the entries shown.
Give bare numbers, as −log10 of the molar value.

Solved cases below.
COMPOUND_STRING	pIC50
C=C(C)[C@@H]1CC[C@]2([C@H]3CO3)CC[C@]3(C)[C@H](CC[C@@H]4[C@@]5(C)CC[C@H](O)C(C)(C)[C@@H]5CC[C@]43C)[C@@H]12	4.77
C=C(C)[C@@H]1CC[C@]2([C@H](O)[C@H]3C=CC(=O)O3)CC[C@]3(C)[C@H](CC[C@@H]4[C@@]5(C)CC[C@H](OC(C)=O)C(C)(C)[C@@H]5CC[C@]43C)[C@@H]12	4.89

Query :: Quick one: pIC50 of CCOC(=O)C[C@H]1O[C@@H]2[C@@H]3[C@H]4CC[C@@H]5[C@@]6(C)CC[C@H](OC(C)=O)C(C)(C)[C@@H]6CC[C@@]5(C)[C@]4(C)CC[C@@]31CCC2(C)C ?
Result :: 4.76

###

system: MCF7; assay: Cytotoxicity against human MCF7 cells after 96 hrs by SRB assay; assay type: functional, cell-based; settings: MCF7, 96 h
Consider the cut-off 10 µM. If the recorded IC50 is strictly smaller, the label is Criterion met; if not, the label is Criterion not met.

Query :: Is 10 µM strictly greater than the molecule's reported IC50? molecule: C=C(C)[C@@H]1CC[C@]2([C@H](O)CC(=O)CC(=O)OCC)CC[C@]3(C)[C@H](CC[C@@H]4[C@@]5(C)CC[C@H](OC)C(C)(C)[C@@H]5CC[C@]43C)[C@@H]12
Result :: Criterion not met

Query :: Is 10 µM strictly greater than the molecule's reported IC50? molecule: C=C(C)[C@@H]1CC[C@]2(C(=O)[C@H]3CCOC3=O)CC[C@]3(C)[C@H](CC[C@@H]4[C@@]5(C)CC[C@H](OC(C)=O)C(C)(C)[C@@H]5CC[C@]43C)[C@@H]12 (mixture of isomers)
Result :: Criterion met

Query :: Is 10 µM strictly greater than the molecule's reported IC50? molecule: CCOC(=O)C[C@H]1O[C@@H]2[C@@H]3[C@H]4CC[C@@H]5[C@@]6(C)CC[C@H](OC(C)=O)C(C)(C)[C@@H]6CC[C@@]5(C)[C@]4(C)CC[C@@]31CCC2(C)C
Result :: Criterion not met

Query :: Is 10 µM strictly greater than the molecule's reported IC50? molecule: C=C(C)[C@@H]1CC[C@]2([C@H](O)CC(=O)CC(=O)OCC)CC[C@]3(C)[C@H](CC[C@@H]4[C@@]5(C)CC[C@H](OC(C)=O)C(C)(C)[C@@H]5CC[C@]43C)[C@@H]12
Result :: Criterion not met

Query :: Is 10 µM strictly greater than the molecule's reported IC50? molecule: C=C(C)[C@@H]1CC[C@]2(C(=O)CC(=O)OCC)CC[C@]3(C)[C@H](CC[C@@H]4[C@@]5(C)CC[C@H](OC)C(C)(C)[C@@H]5CC[C@]43C)[C@@H]12
Result :: Criterion met

Query :: Is 10 µM strictly greater than the molecule's reported IC50? molecule: C=C(C)[C@@H]1CC[C@]2([C@H](O)CC(=O)OCC)CC[C@]3(C)[C@H](CC[C@@H]4[C@@]5(C)CC[C@H](OC(C)=O)C(C)(C)[C@@H]5CC[C@]43C)[C@@H]12
Result :: Criterion not met

Query :: Is 10 µM strictly greater than the molecule's reported IC50? molecule: C=C(C)[C@@H]1CC[C@]2([C@H](O)[C@H]3C=CC(=O)O3)CC[C@]3(C)[C@H](CC[C@@H]4[C@@]5(C)CC[C@H](OC(C)=O)C(C)(C)[C@@H]5CC[C@]43C)[C@@H]12
Result :: Criterion not met

Query :: Is 10 µM strictly greater than the molecule's reported IC50? molecule: C=C(C)[C@@H]1CC[C@]2(C(=O)CC(=O)OCC)CC[C@]3(C)[C@H](CC[C@@H]4[C@@]5(C)CC[C@H](OC(C)=O)C(C)(C)[C@@H]5CC[C@]43C)[C@@H]12
Result :: Criterion met

Query :: Is 10 µM strictly greater than the molecule's reported IC50? molecule: C=C(C)[C@@H]1CC[C@]2([C@@H]3O[C@H]3C(=O)N(CC)CC)CC[C@]3(C)[C@H](CC[C@@H]4[C@@]5(C)CC[C@H](OC(C)=O)C(C)(C)[C@@H]5CC[C@]43C)[C@@H]12
Result :: Criterion met

Query :: Is 10 µM strictly greater than the molecule's reported IC50? molecule: C=C(C)[C@@H]1CC[C@]2([C@H](O)[C@H]3CCOC3=O)CC[C@]3(C)[C@H](CC[C@@H]4[C@@]5(C)CC[C@H](OC(C)=O)C(C)(C)[C@@H]5CC[C@]43C)[C@@H]12
Result :: Criterion not met

Query :: Is 10 µM strictly greater than the molecule's reported IC50? molecule: C=C(C)[C@@H]1CC[C@]2([C@@H]3CO3)CC[C@]3(C)[C@H](CC[C@@H]4[C@@]5(C)CC[C@H](O)C(C)(C)[C@@H]5CC[C@]43C)[C@@H]12
Result :: Criterion not met

Query :: Is 10 µM strictly greater than the molecule's reported IC50? molecule: C=C(C)[C@@H]1CC[C@]2([C@H]3CO3)CC[C@]3(C)[C@H](CC[C@@H]4[C@@]5(C)CC[C@H](O)C(C)(C)[C@@H]5CC[C@]43C)[C@@H]12
Result :: Criterion not met

Query :: Is 10 µM strictly greater than the molecule's reported IC50? molecule: CCOC(=O)CC(=O)C[C@H]1O[C@@H]2[C@@H]3[C@H]4CC[C@@H]5[C@@]6(C)CC[C@H](OC(C)=O)C(C)(C)[C@@H]6CC[C@@]5(C)[C@]4(C)CC[C@@]31CCC2(C)C
Result :: Criterion met
